# experimental-system: rat AR ligand-binding domain (Rattus norvegicus)
# Sequence (P15207 651-882 limits assumed): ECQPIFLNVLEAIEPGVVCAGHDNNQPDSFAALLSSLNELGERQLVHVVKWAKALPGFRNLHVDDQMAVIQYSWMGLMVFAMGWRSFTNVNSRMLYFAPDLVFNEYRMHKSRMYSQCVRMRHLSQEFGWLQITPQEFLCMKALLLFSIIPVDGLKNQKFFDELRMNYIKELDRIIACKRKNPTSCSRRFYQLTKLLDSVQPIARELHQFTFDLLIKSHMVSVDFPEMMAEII
recorded-metric: IC50 (µM)
Give bare numbers, in µM.

Prompt line: Recorded IC50 for CNC(=O)c1ccc(N2C(=S)N(c3ccc(C#N)c(C(F)(F)F)c3)C(=O)[C@]23CCOC3)cc1F [(R)-1] with rat AR ligand-binding domain (Rattus norvegicus), please?
Response line: 7.9

====

# assay-explanation: Maximum tolerated dose, peroral once a day for 5 days in CD1 male mice
# Type: in vivo
# condition-details: CD1, mouse, in vivo, oral; male CD-1 mice, peroral once a day for 5 days
Answer each item with its documented MTD at 5 days.

Prompt line: Would you mind telling me what MTD at 5 days value was observed for CNC(=O)c1ccc(N2C(=S)N(c3ccc(C#N)c(C(F)(F)F)c3)C(=O)C2(C)C)cc1F [Ia, MDV3100] ?
Response line: ~30 mg/kg

Continuing:
Prompt line: Would you mind telling me what MTD at 5 days value was observed for CNC(=O)c1ccc(N2C(=S)N(c3ccc(C#N)c(C(F)(F)F)c3)C(=O)[C@]23CCOC3)cc1F [(R)-1] ?
Response line: > 100 mg/kg

====

# experimental-system: androgen receptors (Homo sapiens, UniProt P10275, T878A)
# Construct: host or cells: LNCaP
# assay-explanation: cell-based
# Format: cell-based
# Method: The expression of PSA was measured in the culture medium 24 hours thereafter (FIG. 1). […] The LnCAP cells were cultured for a further 5 days and the number of viable cells was then calculated. FIG. 1. Inhibition of DHT-stimulated PSA expression in LnCAP cells. These cells are sensitive towards 5-a-dihydrotestosterone (DHT) and in the presence thereof produce cancer markers (PSA). […] Then, samples of the supracellular medium were taken and analyzed for PSA. […]
recorded-metric: Ki (µM)
Answers are plain numbers, in µM.

Prompt line: Would you mind telling me what Ki value was observed for CNC(=O)c1ccc(N2C(=S)N(c3ccc(C#N)c(C(F)(F)F)c3)C(=O)[C@@]23CCOC3)cc1F [(S)-1] ?
Response line: 0.215

====

Answer each item with its documented concentration at 30 min.
# assay-explanation: Distribution in plasma, brain and prostate after single IV administration in rats
# Format: in vivo
# condition-details: rat, plasma, single IV 2 mg/kg, 30 min, Mean ± SD, n = 3

Quick request: concentration at 30 min for each listed item, please.
1. CNC(=O)c1ccc(N2C(=S)N(c3ccc(C#N)c(C(F)(F)F)c3)C(=O)C2(C)C)cc1F
2. CNC(=O)c1ccc(N2C(=S)N(c3ccc(C#N)c(C(F)(F)F)c3)C(=O)[C@]23CCOC3)cc1F [(R)-1]

Response line:
1: 263 ng/mL; 2: 746 ng/mL

====

# experimental-system: androgen receptors (Homo sapiens, UniProt P10275, T878A)
# Construct: host or cells: LNCaP
# Sequence (P10275 1-920 T878A): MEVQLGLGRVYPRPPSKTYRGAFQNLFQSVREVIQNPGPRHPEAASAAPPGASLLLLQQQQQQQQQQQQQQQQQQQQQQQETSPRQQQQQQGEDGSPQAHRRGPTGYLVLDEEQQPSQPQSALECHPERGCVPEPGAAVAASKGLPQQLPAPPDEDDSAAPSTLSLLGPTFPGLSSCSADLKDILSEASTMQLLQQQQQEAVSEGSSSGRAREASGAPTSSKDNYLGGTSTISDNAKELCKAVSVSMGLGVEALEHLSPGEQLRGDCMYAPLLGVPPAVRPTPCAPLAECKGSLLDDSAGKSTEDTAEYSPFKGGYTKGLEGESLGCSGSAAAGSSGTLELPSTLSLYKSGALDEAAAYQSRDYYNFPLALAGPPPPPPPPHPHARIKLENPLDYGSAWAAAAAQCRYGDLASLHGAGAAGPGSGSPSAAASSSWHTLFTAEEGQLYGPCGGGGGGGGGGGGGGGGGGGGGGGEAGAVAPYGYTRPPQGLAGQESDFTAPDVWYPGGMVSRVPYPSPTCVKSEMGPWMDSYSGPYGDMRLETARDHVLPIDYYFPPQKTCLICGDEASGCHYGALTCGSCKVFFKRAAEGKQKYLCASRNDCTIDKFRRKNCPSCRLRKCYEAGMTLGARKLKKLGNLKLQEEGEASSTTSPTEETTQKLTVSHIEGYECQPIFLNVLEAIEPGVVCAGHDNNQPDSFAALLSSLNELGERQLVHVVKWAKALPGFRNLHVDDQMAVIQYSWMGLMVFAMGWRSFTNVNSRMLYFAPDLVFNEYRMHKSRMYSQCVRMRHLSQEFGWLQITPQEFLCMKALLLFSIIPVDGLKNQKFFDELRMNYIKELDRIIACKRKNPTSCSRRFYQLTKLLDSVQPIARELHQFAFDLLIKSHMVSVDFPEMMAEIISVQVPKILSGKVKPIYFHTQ
# assay-explanation: cell-based
# Assay type: cell-based
# condition-details: read-out: Ki, inhibition of DHT-induced PSA expression
recorded-metric: pKi
Give bare numbers, as −log10 of the molar value.

Prompt line: Would you mind telling me what pKi value was observed for CNC(=O)c1ccc(N2C(=S)N(c3ccc(C#N)c(C(F)(F)F)c3)C(=O)[C@]23CCOC3)cc1F [(R)-1] ?
Response line: 7.70

====

# assay-explanation: Distribution in plasma, brain and prostate after single IV administration in rats
# Assay type: in vivo
# condition-details: rat, plasma, single IV 1 mg/kg, 30 min, Mean ± SD, n = 3
recorded-metric: concentration at 30 min (ng/mL)
Answers are plain numbers, in ng/mL.

Prompt line: Would you mind telling me what concentration at 30 min value was observed for CNC(=O)c1ccc(N2C(=S)N(c3cnc(C#N)c(C(F)(F)F)c3)C(=O)C23CCC3)cc1F ?
Response line: 251
